These measurements were taken from patent US20260132129A1.

target: PI3Kα H1047R (T47D cells) (Homo sapiens, UniProt P42336, H1047R); construct: endogenous in cells; host or cells: T47D cells; assay: PI3Kα cellular assay: pAKT HTRF in T47D cells after EGF stimulation; type: cell-based; details: T47D cells (PI3Kα H1047R), pAKT S473 HTRF, EGF stimulation
Sequence (P42336 whole entry H1047R): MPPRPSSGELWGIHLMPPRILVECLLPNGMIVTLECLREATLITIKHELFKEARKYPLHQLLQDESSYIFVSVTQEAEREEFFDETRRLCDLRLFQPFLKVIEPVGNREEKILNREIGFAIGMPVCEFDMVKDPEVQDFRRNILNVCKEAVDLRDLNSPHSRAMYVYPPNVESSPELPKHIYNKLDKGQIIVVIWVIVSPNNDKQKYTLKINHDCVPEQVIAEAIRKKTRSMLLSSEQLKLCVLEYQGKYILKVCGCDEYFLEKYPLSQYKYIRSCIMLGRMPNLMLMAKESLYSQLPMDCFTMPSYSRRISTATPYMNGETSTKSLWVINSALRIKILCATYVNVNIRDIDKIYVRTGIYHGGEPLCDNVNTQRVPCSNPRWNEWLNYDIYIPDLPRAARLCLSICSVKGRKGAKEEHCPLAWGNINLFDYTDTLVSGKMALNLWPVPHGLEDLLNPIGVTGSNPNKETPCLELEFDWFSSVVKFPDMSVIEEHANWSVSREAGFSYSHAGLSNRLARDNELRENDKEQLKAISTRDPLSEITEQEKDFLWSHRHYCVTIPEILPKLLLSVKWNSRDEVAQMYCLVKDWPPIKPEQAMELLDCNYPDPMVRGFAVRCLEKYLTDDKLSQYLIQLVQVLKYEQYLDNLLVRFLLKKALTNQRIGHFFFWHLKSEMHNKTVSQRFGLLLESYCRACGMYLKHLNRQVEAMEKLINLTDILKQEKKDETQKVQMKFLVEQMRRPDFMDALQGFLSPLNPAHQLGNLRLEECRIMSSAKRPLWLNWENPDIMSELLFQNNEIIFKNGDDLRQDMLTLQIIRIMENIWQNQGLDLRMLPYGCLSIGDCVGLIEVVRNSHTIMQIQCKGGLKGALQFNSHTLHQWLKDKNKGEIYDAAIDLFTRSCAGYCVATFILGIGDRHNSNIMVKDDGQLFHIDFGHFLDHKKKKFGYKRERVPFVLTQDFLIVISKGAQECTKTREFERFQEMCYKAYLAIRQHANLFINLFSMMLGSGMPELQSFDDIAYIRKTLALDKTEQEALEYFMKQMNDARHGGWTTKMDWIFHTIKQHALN
Sequence (P27986 whole entry partner): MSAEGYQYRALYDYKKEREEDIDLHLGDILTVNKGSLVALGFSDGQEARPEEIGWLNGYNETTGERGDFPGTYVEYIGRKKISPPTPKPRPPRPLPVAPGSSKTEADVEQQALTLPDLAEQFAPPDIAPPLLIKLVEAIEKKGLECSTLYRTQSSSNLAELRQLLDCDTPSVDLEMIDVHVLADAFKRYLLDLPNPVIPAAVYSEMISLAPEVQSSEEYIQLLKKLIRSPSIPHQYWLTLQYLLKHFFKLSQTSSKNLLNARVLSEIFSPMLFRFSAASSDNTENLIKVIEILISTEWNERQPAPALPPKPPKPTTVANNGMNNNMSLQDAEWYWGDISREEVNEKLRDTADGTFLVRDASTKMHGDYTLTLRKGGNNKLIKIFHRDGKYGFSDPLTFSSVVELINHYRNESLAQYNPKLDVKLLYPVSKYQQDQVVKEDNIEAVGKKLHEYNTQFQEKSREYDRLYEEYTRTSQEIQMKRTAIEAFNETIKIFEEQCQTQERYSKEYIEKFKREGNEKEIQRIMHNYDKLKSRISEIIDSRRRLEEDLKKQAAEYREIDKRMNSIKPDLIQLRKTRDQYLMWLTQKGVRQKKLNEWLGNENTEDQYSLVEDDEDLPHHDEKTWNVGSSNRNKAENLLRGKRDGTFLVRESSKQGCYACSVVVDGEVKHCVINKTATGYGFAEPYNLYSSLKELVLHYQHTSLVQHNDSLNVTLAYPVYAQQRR
pIC50: −log10 of the molar value.
Exercise: state measured pIC50 for each of the compounds provided.

Cc1cc([C@H](C)Nc2ccccc2C(=O)O)c2nc(-c3cccc(C(F)F)c3)cc(=O)n2c1 ... > 7.00
COc1cc(-c2nc3c([C@@H](C)Nc4ccccc4C(=O)O)cc(C)cn3c(=O)c2C)ccn1 ... > 7.00
Cc1cc(C(C)Nc2ccccc2C(=O)O)c2nc(-c3ccc(C(C)C)nc3)c(C)c(=O)n2c1 (stereo not shown) ... > 7.00

// batch mode: one pIC50 value per listed entry
1. Cc1cc(C(C)Nc2cccc(CO)c2C(=O)O)c2nc(-c3ccc4c(c3)c(C)nn4C)cc(=O)n2c1 (stereo not shown)
2. Cc1cc(C(C)Nc2ccccc2S(N)(=O)=O)c2nc(-c3ccc4c(c3)c(C)nn4C3CC3)c(C)c(=O)n2c1 (stereo not shown)
3. Cc1cc([C@@H](C)Nc2ccccc2C(=O)O)c2nc(N3C[C@H](C)C[C@H](C(F)F)C3)cc(=O)n2c1
4. Cc1cc(C(C)Nc2ccsc2-c2ccnnc2)c2nc(N3Cc4ccccc4C3)c(C)c(=O)n2c1 (stereo not shown)

Result block:
["< 5.70", "6.30 to 7.00", "5.70 to 6.30", "6.30 to 7.00"]

----------
target: PI3Kα H1047R (T47D cells) (Homo sapiens, UniProt P42336, H1047R); construct: endogenous in cells; host or cells: T47D cells; assay: PI3Kα cellular assay: pAKT HTRF in T47D cells after EGF stimulation; format: cell-based; details: T47D cells (PI3Kα H1047R), pAKT S473 HTRF, EGF stimulation
Task for the reader: assign each of the following molecules its reported IC50.

Cc1cc(C(C)Nc2ccccc2C(=O)O)c2nc(-c3cnc4c(c3)c(C)nn4C)c(C)c(=O)n2c1 (stereo not shown) ... < 100 nM

Hi! Can you tell me IC50 for each of these molecules?
1. Cc1cc(C(C)Nc2ccccc2C(=O)O)c2nc(-c3ccc4c(C)nn(C)c4c3)cc(=O)n2c1 (stereo not shown)
2. Cc1cc(C(C)Nc2ccccc2C(=O)O)c2nc(-c3ccc(F)cc3)c(C)c(=O)n2c1 (stereo not shown) [Compound 721]

Result block:
< 100 nM
100 to 500 nM

// batch mode: one IC50 value per listed entry
1. Cc1cc([C@H](C)Nc2ccccc2C(=O)O)c2nc(-c3ccc4c(c3)c(C3CC3)nn4C)cc(=O)n2c1
2. Cc1cc(C(C)Nc2ccccc2C(=O)O)c2nc(C#CC3CC3)c(C)c(=O)n2c1 (stereo not shown)

Result block:
1. > 2000 nM
2. 100 to 500 nM

Please report IC50 for every entry that follows.
1. Cc1cc(C(C)Nc2ccccc2C(=O)O)c2nc(C3CCCN(CC(F)F)C3)c(C)c(=O)n2c1 (stereo not shown)
2. Cc1cc([C@H](C)Nc2ccccc2-c2ccnnc2)c2nc([C@@H]3CCCOC3)c(C)c(=O)n2c1

Result block:
["100 to 500 nM", "< 100 nM"]

----------
molecular target: PI3Kα H1047R (T47D cells) (Homo sapiens, UniProt P42336, H1047R); construct: endogenous in cells; host or cells: T47D cells; assay: PI3Kα cellular assay: pAKT HTRF in T47D cells after EGF stimulation; assay type: cell-based; details: T47D cells (PI3Kα H1047R), pAKT S473 HTRF, EGF stimulation
OUTCOME MEASURE: IC50

These solved cases illustrate the format of a correct answer.
Cc1cc(C(C)Nc2ccccc2-c2ccnnc2)c2nc(-c3ccc4c(C)nn(C5CC5)c4c3)c(C)c(=O)n2c1 (centres unmarked) [Compound 1127] ... > 2000 nM
Cc1cc(C(C)Nc2ccccc2C(=O)O)c2nc(-c3cnc(C4CCOCC4)nc3)c(C)c(=O)n2c1 (centres unmarked) [Compound 1272] ... 100 to 500 nM
Cc1cc([C@H](C)Nc2cccc3c2CCC(=O)N3)c2nc(N3CCOCC3)cc(=O)n2c1 [Compound 688] ... > 2000 nM
Cc1cc(C(C)Nc2cccc(C#N)c2C(=O)O)c2nc(-c3ccc4c(c3)c(C)nn4C)cc(=O)n2c1 (centres unmarked) [Compound 981] ... > 2000 nM

Query block: // lookup IC50 for Cc1cc([C@H](C)Nc2ccccc2C(=O)O)c2nc(C3C[C@@H](C)O[C@@H](C)C3)cc(=O)n2c1 (some centres unmarked) [Compound 925]
Result block: 500 to 2000 nM

----------
Target: PI3Kα H1047R (T47D cells) (Homo sapiens, UniProt P42336, H1047R)
Construct: endogenous in cells; host or cells: T47D cells
Test: PI3Kα cellular assay: pAKT HTRF in T47D cells after EGF stimulation
Format: cell-based
Details: selectivity of T47D (H1047R) over SKBR3 (WT) pAKT IC50
Protocol: SKBR3 or T47D cells are seeded in DMEM containing 10% FBS at 25k cells/well into 96-well cell culture format. […] 384 well plate is left overnight at room temperature before reading HTRF on an Envision plate reader. ND denotes value not determined with that assay for the specified compound; • for T47D (H1047R) selectivity over SKBR3 (WT): A denotes >20-fold; B denotes 20-fold≥value>5-fold; C denotes ≤5-fold. […] ND denotes value not determined with that assay for the specified compound.
OUTCOME MEASURE: T47D pAKT S473 HTRF IC50 (H1047R): T47D (H1047R) selectivity over SKBR3 (WT)

Cc1cc([C@@H](C)Nc2ccccc2C(=O)O)c2nc(-c3cccc(C#N)c3)c(C)c(=O)n2c1 (single isomer, unassigned) [Compound 967] ... A (A denotes >20-fold)
Cc1cc([C@H](C)NC2=C(C(=O)O)C=CCC2)c2nc(-c3ccc(CC4CCN(C(=O)C5CC5)CC4)nc3)cc(=O)n2c1 [Compound 784] ... C (C denotes ≤5-fold)
Cc1cc([C@H](C)Nc2cccc3[nH]nnc23)c2nc(N3CCOCC3)cc(=O)n2c1 [Compound 745] ... C (C denotes ≤5-fold)
Cc1cc(C(C)Nc2ccccc2-c2ccnnc2)c2nc(N3CC(C)OC(C)C3)cc(=O)n2c1 (centres unmarked) [Compound 698] ... C (C denotes ≤5-fold)
Cc1cc([C@H](C)N[C@H](C(=O)O)c2ccccc2)c2nc(N3CCOCC3)cc(=O)n2c1 [Compound 650] ... C (C denotes ≤5-fold)

For every item below, please supply its T47D pAKT S473 HTRF IC50 (H1047R): T47D (H1047R) selectivity over SKBR3 (WT).
1. CNc1nn(C)c2ccc(-c3cc(=O)n4cc(C)cc([C@H](C)Nc5ccccc5C(=O)O)c4n3)cc12 [Compound 768]
2. CNS(=O)(=O)c1ccccc1NC(C)c1cc(C)cn2c(=O)cc(N3Cc4ccccc4C3)nc12 (centres unmarked) [Compound 835]
3. Cc1cc(C(C)Nc2ccccc2C(=O)O)c2nc(-c3ccc4c(c3)CC(F)(F)C4)c(C)c(=O)n2c1 (centres unmarked) [Compound 833]
4. Cc1cc([C@@H](C)Nc2cccc3nonc23)c2nc(N3CCOCC3)cc(=O)n2c1 [Compound 802]
5. Cc1cc([C@H](C)Nc2ccccc2C(=O)O)c2nc(-n3cc(C(N)=O)c4ccccc43)cc(=O)n2c1 [Compound 772]
6. C[C@@H]1C[C@H](C)CN(c2cc(=O)n3cc(C(F)(F)F)cc([C@@H](C)Nc4ccccc4C(=O)O)c3n2)C1 [Compound 1036]
7. Cc1cc([C@H](C)Nc2ccccc2C(=O)O)c2nc(-c3ccc4c(C)nn(C)c4c3)c(C)c(=O)n2c1 [Compound 928]
8. Cc1cc(C(C)Nc2ccccc2C(=O)O)c2nc(-c3ccc4c(n3)c(C)nn4C)cc(=O)n2c1 (centres unmarked) [Compound 858]

Result block:
A (A denotes >20-fold)
A (A denotes >20-fold)
A (A denotes >20-fold)
C (C denotes ≤5-fold)
C (C denotes ≤5-fold)
A (A denotes >20-fold)
C (C denotes ≤5-fold)
A (A denotes >20-fold)

For every record below, what is its T47D pAKT S473 HTRF IC50 (H1047R): T47D (H1047R) selectivity over SKBR3 (WT)?
1. Cc1cc(C(C)NC2=C(C(=O)O)C=CCC2)c2nc(-c3ccc(CC4CCN(C(=O)C5CC5)CC4)nc3)cc(=O)n2c1 (centres unmarked) [Compound 759]
2. Cc1cc(C(C)Nc2cccc3oc(=O)[nH]c23)c2nc(N3CCOCC3)cc(=O)n2c1 (centres unmarked) [Compound 918]
3. Cc1cc([C@H](C)Nc2ccccc2C(=O)O)c2nc(-c3ccc4c(c3)c(C)cn4C3CCOCC3)c(C)c(=O)n2c1 [Compound 1009]
4. Cc1cc([C@@H](C)Nc2ccccc2C(=O)O)c2nc(C3C[C@@H](C)O[C@@H](C)C3)cc(=O)n2c1 (some centres unmarked) [Compound 924]
5. Cc1cc([C@H](C)Nc2ccccc2C(=O)O)c2nc(-c3ccc4c(c3)COC4)cc(=O)n2c1 [Compound 852]
6. Cc1cc([C@H](C)Nc2ccccc2C(=O)O)c2nc(-c3ccc4c(c3)c(C)nn4C)cc(=O)n2c1 [Compound 697]

Result block:
["C (C denotes ≤5-fold)", "C (C denotes ≤5-fold)", "C (C denotes ≤5-fold)", "A (A denotes >20-fold)", "C (C denotes ≤5-fold)", "C (C denotes ≤5-fold)"]
